Reported EC50 is given for each of the following binders.
target: recombinantly produced human-NGF (human, UniProt P01138 122-241, limits assumed); experiment: ELISA, human NGF coated, IgG titrated
Sequence (P01138 122-241 limits assumed): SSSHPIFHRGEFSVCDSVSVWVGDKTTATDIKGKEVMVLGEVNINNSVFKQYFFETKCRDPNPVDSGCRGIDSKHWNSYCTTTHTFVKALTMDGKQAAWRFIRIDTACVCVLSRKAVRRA
readout_label: EC50 (ng/mL)

binder="Ab54 (antibody, human IgG1, V domains shown) VH: EVQLVQSGAEVKKPGESLKISCKISGYSFITYWISWVRQMPGKGLEWMGAIDPSDSDARYSPSFQGQVTISADKSISTAYLQWSSLKASDTAMYYCAKSDPGYSGYSLLYGFDSWGQGTLVTVSS VL: DVVMTQSPLSLPVTLGQPASISCRSSQSLVQRNGNTYLSWYQQRPGQSPRLLIYQVSNRYSGVPDRFSGSGSGTDFTLKISRVEAEDVGVYYCGQGAHLPLTFGQGTKVEIK" reading=0.0257
binder="Ab41 (antibody, human IgG1, V domains shown) VH: EVQLVQSGAEVKKPGESLKISCKGSGYSFITYWISWVRQMPGKGLEWMGAIDPSDSDARYSPSFQGQVTISADKSISTAYLQWSSLKASDTAMYYCAKSDPGYSGYSLLYGFDSWGQGTLVTVSS VL: DIVMTQTPLSSPVTLGQPASISCRSSQSLVQRNGNTYLSWLQQRPGQPPRLLIYQVSNRYSGVPDRFSGSGAGTDFTLKISRVEAEDVGVYYCGQGAHLPLTFGQGTKVEIK" reading=0.0192
binder="Ab31 (antibody, human IgG1, V domains shown) VH: EVQLVQSGAEVKKPGATVKISCKVSGYTFITYWISWVQQAPGKGLEWMGAIDPSDSDARYSPSFQGRVTITADKSTDTAYMELSSLRSEDTAVYYCAKSDPGYSGYSLLYGFDSWGQGTLVTVSS VL: DIVMTQTPLSSPVTLGQPASISCRSSQSLVQRNGNTYLSWLQQRPGQPPRLLIYQVSNRYSGVPDRFSGSGAGTDFTLKISRVEAEDVGVYYCGQGAHLPLTFGQGTKVEIK" reading=0.0502
